experimental.details: in vitro
experimental.context: human, hela cells, % viability
quantity.name: viability at 28.5 h, 10 µM (%)
Write down the numeric answer in % and omit the unit.

{"compound": "CCCNC(=O)C1(Cc2ccccc2-c2cccs2)CCN(C(=O)c2ccccc2)CC1", "measured.value": 95}
{"compound": "Cc1cccc(OCC2CCCN(C(=O)Cn3cc(C)cn3)C2)c1 (centres unmarked)", "measured.value": 89.9}
{"compound": "Cc1cccc(C2(O)CCN(CC(O)c3ccc4c(c3)CCC4)CC2)c1 (centres unmarked)", "measured.value": 95.3}

Looking up CCc1noc(C(C)N2CCN(CC(=O)NCc3ccco3)CC2)n1 (centres unmarked) , I see its viability at 28.5 h, 10 µM listed as 116

Just so you know, measured viability at 28.5 h, 10 µM for `Cn1cc(C(=O)N2CCc3ccccc3C2)c2ccccc21` came out at 90

====

Items are presented alongside their recorded viability at 28.5 h, 10 µM.
experimental.details: in vitro
experimental.context: human, hela cells, % viability
Respond numerically; units are % and should not be typed.

{"molecule": "O=C(NCc1ccc2occc2c1)c1ccc2[nH]ccc2c1", "viability at 28.5 h, 10 µM (%)": 89.7}
{"molecule": "COc1cc(CNc2nc(-c3ccc(C(C)(C)C)cc3)cn3ccnc23)cc(OC)c1OC", "viability at 28.5 h, 10 µM (%)": 99.3}
{"molecule": "O=C(Cc1cn2ccsc2n1)NCCS(=O)(=O)N1CCc2ccccc21", "viability at 28.5 h, 10 µM (%)": 75.4}
{"molecule": "CN(C)C(=O)C1(Cc2ccc(-c3cccs3)cc2)CCN(C(=O)c2ccccc2)CC1", "viability at 28.5 h, 10 µM (%)": 85.5}
{"molecule": "O=C(CN1C(=O)N2CCCN=C2c2ccccc21)N1CCCC1", "viability at 28.5 h, 10 µM (%)": 88.4}
{"molecule": "Cc1cc(C)nc(Nc2n[nH]c(-c3ccc(NC(=O)Nc4ccccc4)cc3)n2)n1", "viability at 28.5 h, 10 µM (%)": 92.7}
{"molecule": "ON=C1CCC(c2ccccc2)CC1 (stereo not drawn)", "viability at 28.5 h, 10 µM (%)": 113}
{"molecule": "N#CCc1ccc(Nc2cc(-c3cccc(N)c3)ncn2)cc1", "viability at 28.5 h, 10 µM (%)": 96.7}

Moving on to the next molecule.
Kindly note the recorded viability at 28.5 h, 10 µM for `CN1CCc2[nH]c(=S)c(C#N)c(-c3ccccc3)c2C1` , which is 96.5

====

experimental.details: in vitro
experimental.context: human, hela cells, % viability
Parameter: viability at 28.5 h, 10 µM. Scope: all listed entries.
Supply the numeric figure in %, leaving out any unit text.

{"compound": "CCCn1c(CN2CCOCC2)nc2c1c(=O)n(C)c(=O)n2C", "units.label": "%", "viability at 28.5 h, 10 µM": 103}

So for CC1CCCC(C)N1c1nn(C)c(=O)[nH]1 (stereo not shown) , the logged viability at 28.5 h, 10 µM turned out to be 100

Record `Cc1cc(NC(=O)c2ccccc2O)n(C)n1` . Reported viability at 28.5 h, 10 µM: 107

Looking up `COC(=O)c1ccccc1NC(=O)CCSc1ccc(C)cc1` , I see its viability at 28.5 h, 10 µM listed as 91.9

viability at 28.5 h, 10 µM in this record for `Cc1cccc(NC(=O)c2ccc3n[nH]c(=S)n3c2)c1` : 88

Entry under test: `CCc1csc(C(=Cc2cccs2)C(N)=O)n1` . Its viability at 28.5 h, 10 µM was 90.2

viability at 28.5 h, 10 µM in this record for Cc1cc(C(=O)NCC[S+](C)[O-])c(-n2cccc2)s1 (stereo not shown) : 96.7

Just so you know, measured viability at 28.5 h, 10 µM for CNC(=O)C1/C(=N\O)c2ccccc2N1C(C)=O (stereo not shown) came out at 114

For this compound ( O=C1c2cccc3cccc(c23)C(=O)N1CC1CCN(CC(O)COCc2ccccc2)CC1 (stereo not shown) [CBK074407C] ), measured viability at 28.5 h, 10 µM is 84.4

Entry under test: `O=C(CN1CCCN(c2ncc(C(F)(F)F)cc2Cl)CC1)Nc1c(F)cccc1F` . Its viability at 28.5 h, 10 µM was 92.5

====

Reported values of viability at 28.5 h, 10 µM for individual entries
experimental.details: in vitro
experimental.context: human, hela cells, % viability
Give the quantity in %, number only.

Examples with their reported viability at 28.5 h, 10 µM follow.
{"molecule": "COc1ccc(C(=O)N2CCC3(CCCN(CCN(C)C)C3)C2)cc1OC (stereo not drawn)", "viability at 28.5 h, 10 µM / %": 95.6}
{"molecule": "Cc1ccsc1C(=O)N1CCC(c2n[nH]c3ncccc23)CC1", "viability at 28.5 h, 10 µM / %": 92.2}
{"molecule": "CCC(NC(=O)c1csc2c1CCCC2)c1ccccc1 (stereo not drawn)", "viability at 28.5 h, 10 µM / %": 108}
{"molecule": "COc1ccc(Cl)cc1NC(=O)CC1NC2CCCCC2NC1=O (stereo not drawn)", "viability at 28.5 h, 10 µM / %": 80.4}

viability at 28.5 h, 10 µM reading for `CN1CCN(c2ccc(NC(=O)c3cc4oc(-c5ccccc5)nc4c(=O)n3C)cc2)CC1` : 94.9

So for `Cn1nccc1CCC(=O)N1CC[C@H]2NC(=O)c3ccccc3OCCCCC[C@H]2C1` , the logged viability at 28.5 h, 10 µM turned out to be 97.4

Notebook: COCCn1c(SC(C)C(=O)OC)nc2ccc(Br)cc2c1=O (stereo not drawn) , viability at 28.5 h, 10 µM read as 88.5

// viability at 28.5 h, 10 µM lookup, molecule = `CCc1cn(C[C@H](NC(=O)C2CCCC2)C(=O)O)c(=O)[nH]c1=O` , result: 106

Entry `CCOC(=O)NC(=O)CSc1nc2ccccc2[nH]1` ; viability at 28.5 h, 10 µM = 91.9

====

experimental.details: in vitro
experimental.context: human, hela cells, % viability
quantity.name: viability at 28.5 h, 10 µM (%)
State just the number; it will be interpreted in %.

{"molecule": "O=C(OCCN1CCOCC1)N1CCN(c2ccccc2)CC1", "viability at 28.5 h, 10 µM, %": 90.3}
{"molecule": "COc1cc(NC(=O)N2CCC3(CC2)CC(=O)c2ccc(C)cc2O3)cc(OC)c1", "viability at 28.5 h, 10 µM, %": 90.3}

Turning now to a further molecule:
Noted for `O=C(c1cc(Cl)c[nH]1)N1CCN(Cc2cc(=O)n3ccsc3n2)CC1` : its viability at 28.5 h, 10 µM reads 92.9

====

experimental.details: in vitro
experimental.context: human, hela cells, % viability
Recorded viability at 28.5 h, 10 µM by entry
Reply numerically in %, unit not repeated.

{"compound": "c1ccc2cc(-c3cn4ccnc4c(NC4CCOCC4)n3)ccc2c1 [CBK066290]", "quantity.name": "viability at 28.5 h, 10 µM", "measured.value": 96.1}
{"compound": "COc1cccc(CNC(C(=O)O)c2ccc3c(c2)OCO3)c1 (stereo not shown) [CBK015420D]", "quantity.name": "viability at 28.5 h, 10 µM", "measured.value": 89.1}
{"compound": "COc1ccc(-c2ccccc2NC(=O)c2ccc(Cn3cnnn3)cc2)cc1 [CBK285866]", "quantity.name": "viability at 28.5 h, 10 µM", "measured.value": 96.4}

// CCCOC1CCCN(C(=O)c2cc(Cl)c[nH]2)C1 (stereo not shown) [CBK304802] : viability at 28.5 h, 10 µM value = 97.5

// CC(C)Nc1nccnc1Sc1cccc(C(=O)O)c1 [CBK093581] : viability at 28.5 h, 10 µM value = 96.6

Entry N#Cc1ccc(-c2cc(N3CCN(C(=O)c4ccco4)CC3)ncn2)cc1 [CBK037813] — recorded viability at 28.5 h, 10 µM = 98.2

In plain terms, Cc1ccc(S(=O)(=O)N(CC(=O)O)c2ccc(C)c(C)c2)cc1 [CBK263778] has a documented viability at 28.5 h, 10 µM of 89.6

Kindly note the recorded viability at 28.5 h, 10 µM for CC(NCCN1CCOCC1)=C1C(=O)c2ccccc2C1=O [CBK262691] , which is 96.1

For this compound ( CCn1cc(CC(=O)Nc2cccc(-n3cnnc3)c2)c2ccccc21 [CBK282669] ), measured viability at 28.5 h, 10 µM is 66.4

Item: COC(=O)c1ccc(NC(=O)Cn2nnc(-c3ccc(CN4CCOCC4)cc3)n2)cc1 [CBK134589] | viability at 28.5 h, 10 µM: 95.4

The reported value for COc1ccc(C(=O)N2CCN(c3ccc(NC(=O)c4cccnc4)cc3)CC2)cc1 [CBK270200] in terms of viability at 28.5 h, 10 µM is 85.5

Field viability at 28.5 h, 10 µM (entry CN1C(CC(O)c2ccccc2)CCCC1C(=O)c1ccccc1 (stereo not shown) [CBK268467C] ) reads 98.8

So for CCn1c(=O)n(CC(=O)NC2CCCCC2)c2cccnc21 [CBK283810] , the logged viability at 28.5 h, 10 µM turned out to be 83.6
